The measurements presented in this section are drawn from ChEMBL document CHEMBL1127532.

Organism: Mus musculus
Assay: Analgesic activity as percentage analgesic efficacy on male albino swiss-webster mice with the hotplate test
Type: functional
Set-up: concentration or dose not given beside the values
Please use class 1 whenever Analgesic efficacy is not below 40%, and class 0 whenever it is.

Is reported Analgesic efficacy greater than or equal to 40% here: CC(C(=O)OC1CC2CCC(C1)N2C)c1ccc(C(F)(F)F)cc1 (stereo not drawn)
class 0

Hi team, for COc1ccc(C(C)C(=O)OC2CC3CCC(C2)N3C)cc1 (stereo not drawn) , is the recorded Analgesic efficacy at or above 40%?
class 1

Entry CC(C(=O)OC1CC2CCC(C1)N2C)c1cccc(Cl)c1 (stereo not drawn) : is its Analgesic efficacy no less than 40%?
class 1

# check: Analgesic efficacy of CC(C(=O)OC1CC2CCC(C1)N2C)c1ccccc1Br (stereo not drawn) is greater than or equal to 40%
class 1

Threshold query (Analgesic efficacy >= 40%) on CC(C(=O)OC1CC2CCC(C1)N2C)c1ccc(Cl)c(Cl)c1 (stereo not drawn)
class 1

Textbook exercise: given the entry O=C(OC1CC2CCC(C1)N2)C(CO)c1ccccc1 (stereo not drawn) , state whether its Analgesic efficacy is greater than or equal to 40%.
class 0

Check this molecule for Analgesic efficacy at or above 40%: CC(C(=O)OC1CC2CCC(C1)N2C)c1ccccc1Cl (stereo not drawn)
class 1

Given CC(C(=O)OC1CC2CCC(C1)N2Cc1ccccc1)c1ccc(Br)cc1 (stereo not drawn) , state whether its Analgesic efficacy is at least 40%.
class 0

Check if Analgesic efficacy >= 40% (inclusive). Item: CC(COC1CC2CCC(C1)N2C)c1ccc(Br)cc1 (stereo not drawn)
class 1

Quick check: does CC(C(=O)OC1CC2CCC(C1)N2C)c1cccs1 (stereo not drawn) have Analgesic efficacy greater than or equal to 40%?
class 0

Could you tell me if the measured Analgesic efficacy of CN1[C@@H]2CC[C@H]1C[C@@H](OC(=O)C(CO)c1ccccc1)C2 (mixture of isomers) reaches 40% or more?
class 1

Please check the record CCC(C(=O)OC1CC2CCC(C1)N2C)c1ccc(Br)cc1 (stereo not drawn) and state if its Analgesic efficacy is at or above 40%.
class 1

State whether the measured Analgesic efficacy reaches 40%, counting equality as reaching it, for CC(C(=O)OC1CC2CCC(C1)N2C)c1ccc([N+](=O)[O-])cc1 (stereo not drawn)
class 0

Is Analgesic efficacy for CC(C(=O)OC1CC2CCC(C1)N2C)c1ccc(Br)cc1 (racemic) at or above 40%?
class 1

In plain terms: is recorded Analgesic efficacy at least 40% for CC(C(=O)OC1CC2CCC(C1)N2C)c1ccccc1 (racemic) ?
class 0

Can CC(C(=O)OC1CC2CCC(C1)N2C)c1ccc(Br)cc1 (stereo in doubt; (-)-19) be said to have Analgesic efficacy at or above 40%?
class 1

Assess whether reported Analgesic efficacy for CN1CCC(OC(=O)C(CO)c2ccc(Cl)cc2)CC1 (stereo not drawn) sits at 40% or higher.
class 0

Form field: Analgesic efficacy at least 40%? Entry: CC(C(=O)OC1CC2CCC(C1)N2C)c1ccc(Br)cc1 (single isomer, unassigned; (+))
class 1

Given CC(C(=O)OC1CC2CCC(C1)N2C)c1ccc(F)cc1 (stereo not drawn) , state whether its Analgesic efficacy is at least 40%.
class 1

# bool: Analgesic efficacy of CN1C2CCC1CC(OC(=O)C(CO)c1ccc(Cl)cc1)C2 (stereo not drawn) >= 40%
class 0

Exam item: decide whether the reported Analgesic efficacy for C[C@H](C(=O)OC1CC2CCC(C1)N2C)c1ccccc1 (stereo partly drawn) is at least 40%.
class 0
